tested on: 624824-186-R-J3-PDC multicell spheroids, viability; test: Anticancer human tumor 624824-186-R-J3-PDC patient-derived colon adenocarcinoma cell line growth inhibition [PI3K]; conditions: curve of first compound; second compound 1 µM

Compound	IC50
Cn1ncnc1[C@H]1c2n[nH]c(=O)c3cc(F)cc(c23)N[C@@H]1c1ccc(F)cc1 + CC(Nc1ncnc2nc[nH]c12)c1cc2cccc(Cl)c2c(=O)n1-c1ccccc1	> 0.1 µM
CNC(=O)c1ccc(N2C(=S)N(c3ccc(C#N)c(C(F)(F)F)c3)C(=O)C2(C)C)cc1F + CC(Nc1ncnc2nc[nH]c12)c1cc2cccc(Cl)c2c(=O)n1-c1ccccc1	> 10 µM
CNC(=O)c1ccc(N2C(=S)N(c3ccc(C#N)c(C(F)(F)F)c3)C(=O)C2(C)C)cc1F + CC(Nc1ccc2c(c1)OCCn1cc(N3C(=O)OCC3C(F)F)nc1-2)C(N)=O	> 10 µM
C#Cc1c(F)ccc2cc(O)cc(-c3ncc4c(N5CC6CCC(C5)N6)nc(OCC56CCCN5CC(F)C6)nc4c3F)c12 (centres undefined) + Cc1nc(NC(=O)N2CCCC2C(N)=O)sc1-c1ccnc(C(C)(C)C(F)(F)F)c1	> 10 µM

----------
Entries and their viability, T/C
test system: 624824-186-R-J3-PDC multicell spheroids, viability; assay: Anticancer human tumor 624824-186-R-J3-PDC cell line growth inhibition [PI3K]; conditions: second compound 0.316 µM; first compound 0.316 µM; stronger effect = lower value;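 further: spheroids exposed to agents for seven days before luminescence read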;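 on viability, T/C: luminescent signal used as a stand-in for spheroid viability; percent viability relative to DMSO vehicle control wells taken as 100%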
Metric Name: viability, T/C (%)

Compound	Assay Result
CC(Cn1ccc(-c2ccc(C#N)c(Cl)c2)n1)NC(=O)c1cc(C(C)O)[nH]n1 (stereo not drawn) + Cc1nc(NC(=O)N2CCCC2C(N)=O)sc1-c1ccnc(C(C)(C)C(F)(F)F)c1	104
CC1(C)CCC(CN2CCN(c3ccc(C(=O)NS(=O)(=O)c4ccc(NCC5CCOCC5)c([N+](=O)[O-])c4)c(Oc4cnc5[nH]ccc5c4)c3)CC2)=C(c2ccc(Cl)cc2)C1 + CC(Nc1ccc2c(c1)OCCn1cc(N3C(=O)OCC3C(F)F)nc1-2)C(N)=O	99.2
CC(C)NCC(C(=O)N1CCN(c2ncnc3c2C(C)CC3O)CC1)c1ccc(Cl)cc1 (stereo not drawn) + Cc1nc(NC(=O)N2CCCC2C(N)=O)sc1-c1ccnc(C(C)(C)C(F)(F)F)c1	91.1

----------
Test system: 624824-186-R-J3-PDC multicell spheroids, viability
Assay: Anticancer human tumor 624824-186-R-J3-PDC cell line growth inhibition [PI3K];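 further: spheroids exposed to agents for seven days before luminescence read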
Conditions: compound alone; run of 04/24/2023
From the text: Combinatorial screen of targeted agents with the PI3K inhibitors inavolisib, alpelisib, duvelisib, and copanlisib in multi-cell type tumor spheroids A high-throughput screen of multi-cell type tumor spheroids was designed to identify active combinations of targeted small molecules and PI3K pathway inhibitors. […] Compounds. […] If the clinical Cmax for an agent had not been determined, the highest concentration tested was 10 microM. […]
pIC50: −log10 of the molar value.
Metric Name: pIC50

Molecule	Metric Name	Assay Result
Cc1nc(NC(=O)N2CCCC2C(N)=O)sc1-c1ccnc(C(C)(C)C(F)(F)F)c1 (configuration not stated)	pIC50	< 5.00
CC(Nc1ccc2c(c1)OCCn1cc(N3C(=O)OCC3C(F)F)nc1-2)C(N)=O (configuration not stated)	pIC50	< 6.00

----------
system: 624824-186-R-J3-PDC multicell spheroids, viability; assay: Anticancer human tumor 624824-186-R-J3-PDC cell line growth inhibition [PI3K]; conditions: curve of first compound; second compound 1 µM;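 further: spheroids exposed to agents for seven days before luminescence read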

Compound	Value Units	Relation Sign	IC50
CC(=O)c1c(C)c2cnc(Nc3ccc(N4CCNCC4)cn3)nc2n(C2CCCC2)c1=O + CC(Nc1ncnc2nc[nH]c12)c1cc2cccc(Cl)c2c(=O)n1-c1ccccc1	µM	>	0.1
Cn1ncc(Cl)c1-c1cc(C(=O)NC(CN)Cc2cccc(F)c2)sc1Cl (stereo not given) + CC(Nc1ccc2c(c1)OCCn1cc(N3C(=O)OCC3C(F)F)nc1-2)C(N)=O	µM	=	3.12
C#Cc1c(F)ccc2cc(O)cc(-c3ncc4c(N5CC6CCC(C5)N6)nc(OCC56CCCN5CC(F)C6)nc4c3F)c12 (stereo not given) + COc1c(OCCCN2CCOCC2)ccc2c3n(c(=NC(=O)c4cnc(N)nc4)nc12)CCN3	µM	<	0.0316
Cn1ncnc1[C@H]1c2n[nH]c(=O)c3cc(F)cc(c23)N[C@@H]1c1ccc(F)cc1 + Cc1nc(NC(=O)N2CCCC2C(N)=O)sc1-c1ccnc(C(C)(C)C(F)(F)F)c1	µM	>	0.1
CC1(C)CCC(Nc2ncc(C(F)(F)F)c(-c3c[nH]c4c(P(C)(C)=O)c(C#N)ccc34)n2)CN1 (stereo not given) + CC(Nc1ccc2c(c1)OCCn1cc(N3C(=O)OCC3C(F)F)nc1-2)C(N)=O	µM	=	3.18

----------
test system: 624824-186-R-J3-PDC multicell spheroids, viability; assay: Anticancer human tumor 624824-186-R-J3-PDC cell line growth inhibition [PI3K]; details: second compound 1 µM; first compound 0.1 µM; stronger effect = lower value;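 further: spheroids exposed to agents for seven days before luminescence read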;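 on viability, T/C: luminescent signal used as a stand-in for spheroid viability; percent viability relative to DMSO vehicle control wells taken as 100%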

Compound	Value Units	viability, T/C
CC(=O)c1c(C)c2cnc(Nc3ccc(N4CCNCC4)cn3)nc2n(C2CCCC2)c1=O + Cc1nc(NC(=O)N2CCCC2C(N)=O)sc1-c1ccnc(C(C)(C)C(F)(F)F)c1	%	93.4
CC(Cn1ccc(-c2ccc(C#N)c(Cl)c2)n1)NC(=O)c1cc(C(C)O)[nH]n1 (stereo not given) + CC(Nc1ccc2c(c1)OCCn1cc(N3C(=O)OCC3C(F)F)nc1-2)C(N)=O	%	88.2
CC1(C)CCC(CN2CCN(c3ccc(C(=O)NS(=O)(=O)c4ccc(NCC5CCOCC5)c([N+](=O)[O-])c4)c(Oc4cnc5[nH]ccc5c4)c3)CC2)=C(c2ccc(Cl)cc2)C1 + CC(Nc1ccc2c(c1)OCCn1cc(N3C(=O)OCC3C(F)F)nc1-2)C(N)=O	%	85.5
CCN1CCN(Cc2ccc(Nc3ncc(F)c(-c4cc(F)c5nc(C)n(C(C)C)c5c4)n3)nc2)CC1 + Cc1nc(NC(=O)N2CCCC2C(N)=O)sc1-c1ccnc(C(C)(C)C(F)(F)F)c1	%	81.6
CC(=O)c1c(C)c2cnc(Nc3ccc(N4CCNCC4)cn3)nc2n(C2CCCC2)c1=O + CC(Nc1ccc2c(c1)OCCn1cc(N3C(=O)OCC3C(F)F)nc1-2)C(N)=O	%	81.3

----------
Reported IC50 values for a set of molecules
system: 624824-186-R-J3-PDC multicell spheroids, viability; experiment: Anticancer human tumor 624824-186-R-J3-PDC cell line growth inhibition [PI3K]; conditions: curve of first compound; second compound 10 µM;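 further: spheroids exposed to agents for seven days before luminescence read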

Molecule	IC50
Cn1cnc2c(F)c(Nc3ccc(Br)cc3Cl)c(C(=O)NOCCO)cc21 + CC(Nc1ncnc2nc[nH]c12)c1cc2cccc(Cl)c2c(=O)n1-c1ccccc1	297 nM
CNC(=O)c1ccc(N2C(=S)N(c3ccc(C#N)c(C(F)(F)F)c3)C(=O)C2(C)C)cc1F + Cc1nc(NC(=O)N2CCCC2C(N)=O)sc1-c1ccnc(C(C)(C)C(F)(F)F)c1	> 10000 nM
Cn1ncnc1[C@H]1c2n[nH]c(=O)c3cc(F)cc(c23)N[C@@H]1c1ccc(F)cc1 + Cc1nc(NC(=O)N2CCCC2C(N)=O)sc1-c1ccnc(C(C)(C)C(F)(F)F)c1	> 100 nM

----------
test system: 624824-186-R-J3-PDC multicell spheroids, viability; assay: Anticancer human tumor 624824-186-R-J3-PDC cell line growth inhibition [PI3K]; conditions: second compound 0.01 µM; first compound 0.0316 µM; stronger effect = lower value;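 further: spheroids exposed to agents for seven days before luminescence read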;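 on viability, T/C: luminescent signal used as a stand-in for spheroid viability; percent viability relative to DMSO vehicle control wells taken as 100%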

Molecule	Value Units	viability, T/C
CC1(C)CCC(CN2CCN(c3ccc(C(=O)NS(=O)(=O)c4ccc(NCC5CCOCC5)c([N+](=O)[O-])c4)c(Oc4cnc5[nH]ccc5c4)c3)CC2)=C(c2ccc(Cl)cc2)C1 + CC(Nc1ccc2c(c1)OCCn1cc(N3C(=O)OCC3C(F)F)nc1-2)C(N)=O	%	105
CC(C)n1nc(-c2ccc3oc(N)nc3c2)c2c(N)ncnc21 + COc1c(OCCCN2CCOCC2)ccc2c3n(c(=NC(=O)c4cnc(N)nc4)nc12)CCN3	%	82.2
CC1(C)CCC(CN2CCN(c3ccc(C(=O)NS(=O)(=O)c4ccc(NCC5CCOCC5)c([N+](=O)[O-])c4)c(Oc4cnc5[nH]ccc5c4)c3)CC2)=C(c2ccc(Cl)cc2)C1 + COc1c(OCCCN2CCOCC2)ccc2c3n(c(=NC(=O)c4cnc(N)nc4)nc12)CCN3	%	93.7

----------
As shown below, each of these compounds has a reported viability, T/C value.
tested on: 624824-186-R-J3-PDC multicell spheroids, viability; assay: Anticancer human tumor 624824-186-R-J3-PDC cell line growth inhibition [PI3K]; details: second compound 0.316 µM; first compound 0.1 µM; stronger effect = lower value;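 further: spheroids exposed to agents for seven days before luminescence read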;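 on viability, T/C: luminescent signal used as a stand-in for spheroid viability; percent viability relative to DMSO vehicle control wells taken as 100%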

Compound	Measured Target	Value Units	viability, T/C
Cn1ncc(Cl)c1-c1cc(C(=O)NC(CN)Cc2cccc(F)c2)sc1Cl (stereo not given) + COc1c(OCCCN2CCOCC2)ccc2c3n(c(=NC(=O)c4cnc(N)nc4)nc12)CCN3	624824-186-R-J3-PDC multicell spheroids, viability	%	54.5
C=CC(=O)N1CCN(c2nc(=O)n(-c3c(C)ccnc3C(C)C)c3nc(-c4c(O)cccc4F)c(F)cc23)C(C)C1 (stereo not given) + CC(Nc1ccc2c(c1)OCCn1cc(N3C(=O)OCC3C(F)F)nc1-2)C(N)=O	624824-186-R-J3-PDC multicell spheroids, viability	%	96.8
C#Cc1c(F)ccc2cc(O)cc(-c3ncc4c(N5CC6CCC(C5)N6)nc(OCC56CCCN5CC(F)C6)nc4c3F)c12 (stereo not given) + CC(Nc1ccc2c(c1)OCCn1cc(N3C(=O)OCC3C(F)F)nc1-2)C(N)=O	624824-186-R-J3-PDC multicell spheroids, viability	%	99.7
CC1(C)CCC(CN2CCN(c3ccc(C(=O)NS(=O)(=O)c4ccc(NCC5CCOCC5)c([N+](=O)[O-])c4)c(Oc4cnc5[nH]ccc5c4)c3)CC2)=C(c2ccc(Cl)cc2)C1 + Cc1nc(NC(=O)N2CCCC2C(N)=O)sc1-c1ccnc(C(C)(C)C(F)(F)F)c1	624824-186-R-J3-PDC multicell spheroids, viability	%	104
C#Cc1c(F)ccc2cc(O)cc(-c3ncc4c(N5CC6CCC(C5)N6)nc(OCC56CCCN5CC(F)C6)nc4c3F)c12 (stereo not given) + COc1c(OCCCN2CCOCC2)ccc2c3n(c(=NC(=O)c4cnc(N)nc4)nc12)CCN3	624824-186-R-J3-PDC multicell spheroids, viability	%	49.9
CCN1CCN(Cc2ccc(Nc3ncc(F)c(-c4cc(F)c5nc(C)n(C(C)C)c5c4)n3)nc2)CC1 + Cc1nc(NC(=O)N2CCCC2C(N)=O)sc1-c1ccnc(C(C)(C)C(F)(F)F)c1	624824-186-R-J3-PDC multicell spheroids, viability	%	94.6
CC(C)NCC(C(=O)N1CCN(c2ncnc3c2C(C)CC3O)CC1)c1ccc(Cl)cc1 (stereo not given) + CC(Nc1ncnc2nc[nH]c12)c1cc2cccc(Cl)c2c(=O)n1-c1ccccc1	624824-186-R-J3-PDC multicell spheroids, viability	%	103
C=CC(=O)N1CCN(c2nc(=O)n(-c3c(C)ccnc3C(C)C)c3nc(-c4c(O)cccc4F)c(F)cc23)C(C)C1 (stereo not given) + CC(Nc1ncnc2nc[nH]c12)c1cc2cccc(Cl)c2c(=O)n1-c1ccccc1	624824-186-R-J3-PDC multicell spheroids, viability	%	116
CC(=O)c1c(C)c2cnc(Nc3ccc(N4CCNCC4)cn3)nc2n(C2CCCC2)c1=O + Cc1nc(NC(=O)N2CCCC2C(N)=O)sc1-c1ccnc(C(C)(C)C(F)(F)F)c1	624824-186-R-J3-PDC multicell spheroids, viability	%	109
Cn1ncc(Cl)c1-c1cc(C(=O)NC(CN)Cc2cccc(F)c2)sc1Cl (stereo not given) + Cc1nc(NC(=O)N2CCCC2C(N)=O)sc1-c1ccnc(C(C)(C)C(F)(F)F)c1	624824-186-R-J3-PDC multicell spheroids, viability	%	104
